B1: CAMK2A (parent)
chain: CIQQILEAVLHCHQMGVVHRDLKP

- Variants of: B1
- assay name: protein stability index of a GFP-peptide fusion (GPS, HEK-293T) (PSI 1-6); higher = more stable;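 note: lentivirally expressed fusions sorted by FACS into six bins by GFP to DsRed ratio, PSI derived from sequencing read proportions per bin multiplied by bin number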
- test settings: c terminus: a fixed tail appended
# protein stability index >= 3 gives t, anything below gives f

# variant name, assigned category
rows = [
    ("C1H", "f"),
    ("H13R", "f"),
    ("R20E", "t"),
    ("V17Y", "t"),
    ("R20K", "f"),
    ("E7A", "f"),
    ("P24S", "f"),
    ("H19E", "t"),
    ("R20C", "f"),
    ("V9G", "f"),
    ("P24C", "f"),
    ("M15S", "f"),
    ("D21N", "t"),
    ("H11D", "t"),
    ("L10Q", "f"),
    ("L6P", "f"),
    ("K23W", "t"),
    ("H19T", "t"),
    ("I2S", "f"),
    ("Q4A", "f"),
    ("E7Q", "f"),
    ("L10M", "t"),
    ("E7S", "f"),
    ("V9K", "f"),
    ("M15N", "f"),
    ("E7I", "f"),
    ("D21R", "f"),
    ("R20D", "f"),
    ("Q3P", "t"),
    ("Q4P", "f"),
    ("K23P", "f"),
    ("P24K", "f"),
    ("A8Y", "f"),
    ("Q14W", "f"),
    ("M15K", "f"),
    ("K23C", "t"),
    ("K23R", "t"),
    ("L6S", "f"),
    ("R20Y", "f"),
    ("C1M", "t"),
    ("I5F", "f"),
    ("L6E", "f"),
    ("E7W", "f"),
    ("Q14C", "f"),
]
